Experiment Summary: Percutaneous administration to anesthetized rats (glass cell on abdominal skin), plasma concentration by HPLC and residual drug recovery
Type: in vivo, rat (Jcl SD strain)
Measurement Conditions: Jcl SD, rat, plasma, topical or ocular, 8 mg/kg; oily base 2.5% 1-menthol/20% ethanol/77.5% isopropyl myristate; phosphate salt 5.6 mg/mL; N=3
Experimental Readout: Cmax (ng/mL)
One number for each entry, in ng/mL.

Can you share its Cmax? I mean this compound: c1cc(-c2nc3c4c(ncc3[nH]2)CCOC4)no1 [Compound (I-1)]
160

----------
Experiment Summary: Percutaneous administration by strapping technique to conscious rats (rayon cloth on abdominal region), plasma concentration by HPLC
Assay type: in vivo, rat (Jcl Wistar strain male)
Measurement Conditions: male, Jcl Wistar, rat, plasma, topical or ocular; 4 mg/kg percutaneous; aqueous base pH 4, 5.6 mg/mL; conscious rats; read-out: AUC 0-360 min (converted)
Experimental Readout: AUC(0-t) (µg·h/mL)
One number for each entry, in µg·h/mL.

Can you share its AUC(0-t)? I mean this molecule: c1cc(-c2nc3c4c(ncc3[nH]2)CCOC4)no1
0.408

----------
Experiment Summary: Percutaneous administration to anesthetized rats (glass cell on abdominal skin), plasma concentration by HPLC and residual drug recovery
Assay type: in vivo, rat (Jcl SD strain)
Measurement Conditions: Jcl SD, rat, plasma, topical or ocular, 8 mg/kg; aqueous base 3% 1-menthol/30% ethanol/67% pH 4 phosphate buffer; phosphate salt 5.6 mg/mL; N=3
Experimental Readout: Cmax

Can you share its Cmax? I mean this compound: c1cc(-c2nc3c4c(ncc3[nH]2)CCOC4)no1
690 ng/mL
